assay: MTT cytotoxicity test on adherent cells; assay type: cell-based; settings: human, hela ohio cells, read-out: LD50 (concentration for which 50% of the cells are killed)
Each item that follows carries a reported CC50 at 24 h.

[
  {
    "smiles.code": "COc1ccc(COc2ccc(C=NN(CCC#N)C(C)=O)cc2)cc1",
    "scale.unit": "µM",
    "CC50 at 24 h": 40
  },
  {
    "smiles.code": "CC(=O)N(CCO)N=Cc1ccc(OCc2ccccc2)cc1",
    "scale.unit": "µM",
    "CC50 at 24 h": 100
  }
]

###

assay: Cytotoxicity test on the cells in suspension (Trypan blue); type: cell-based; details: human, daudi cells, read-out: LD50 (concentration for which 50% of the cells are killed)
parameter.measured: CC50 at 24 h (µM)

[
  {
    "compound": "COc1ccc(COc2ccc(C=NN(CCC#N)C(C)=O)cc2)cc1 [I-a2.4]",
    "parameter.measured": "CC50 at 24 h",
    "scale.unit": "µM",
    "meas.value": 65
  },
  {
    "compound": "CC(=O)N(CCO)N=Cc1ccc(OCc2ccccc2)cc1 [I-a4]",
    "parameter.measured": "CC50 at 24 h",
    "scale.unit": "µM",
    "meas.value": 100
  }
]
